Reported IC50 is given for each of the following compounds.
# assayed_target: RNA-directed RNA polymerase (UniProt O39930)
# Sequence (O39930 whole entry): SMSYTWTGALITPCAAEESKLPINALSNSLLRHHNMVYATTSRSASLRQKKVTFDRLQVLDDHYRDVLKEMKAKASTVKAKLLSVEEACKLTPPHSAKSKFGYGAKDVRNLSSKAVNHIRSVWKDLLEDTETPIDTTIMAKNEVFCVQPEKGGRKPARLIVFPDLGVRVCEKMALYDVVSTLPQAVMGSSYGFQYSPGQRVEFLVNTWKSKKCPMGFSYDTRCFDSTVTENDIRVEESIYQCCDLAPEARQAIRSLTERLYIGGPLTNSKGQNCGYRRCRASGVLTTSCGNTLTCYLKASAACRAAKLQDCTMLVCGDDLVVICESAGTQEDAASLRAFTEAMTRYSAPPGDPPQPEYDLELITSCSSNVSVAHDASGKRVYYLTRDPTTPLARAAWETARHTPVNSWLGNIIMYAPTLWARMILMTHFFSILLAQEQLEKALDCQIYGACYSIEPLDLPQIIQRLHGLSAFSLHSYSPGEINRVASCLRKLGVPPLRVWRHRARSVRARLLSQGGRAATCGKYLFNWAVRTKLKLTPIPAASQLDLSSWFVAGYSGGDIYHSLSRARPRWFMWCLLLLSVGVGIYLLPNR
Respond numerically; units are µM and should not be typed.

O=C(O)C(=O)CC(=O)c1cccc(-c2ccccc2)c1 | 28

Asked: Output IC50 of Cn1cc(C(=O)c2ccc(F)cc2)cc1C=CC(=O)CC(=O)C(=O)O
Given back: 16

Asked: Report measured IC50; entry is O=C(O)C(=O)CC(=O)c1cccc(Oc2ccccc2)c1
Given back: 19

Asked: For the compound O=C(O)C(=O)CC(=O)c1ccsc1Cc1ccc(F)cc1 , report IC50.
Given back: 18

Asked: Return the recorded IC50 value; entry: O=C(O)C(=O)CC(=O)c1cccc(OCc2cccc(Oc3ccccc3)c2)c1
Given back: 50

Asked: Write down IC50 measured for item O=C(C=Cc1cccn1Cc1cccc(F)c1)CC(=O)C(=O)O
Given back: 18

Asked: For Cc1cc(C)c(C(=O)CC(=O)C(=O)O)s1 , write its IC50.
Given back: 8.2

Asked: Could you please provide reported IC50 for Cc1ccccc1Cn1cccc1C=CC(=O)CC(=O)C(=O)O ? Thanks!
Given back: 18

Asked: Provide measured IC50 value, entry: O=C(O)C(=O)CC(=O)c1cccc(OCc2ccc(-c3ccccc3)cc2)c1
Given back: 50

Asked: Return IC50 (reported value) for this compound: O=C(O)C(=O)CC(=O)c1cccc(NC(=O)C(=O)O)c1
Given back: 19

Asked: Supply reported IC50 belonging to this compound: O=C(O)C(=O)CC(=O)c1cccn1Cc1ccc(O)cc1
Given back: 13
